# System: Nucleic Acid
# measurement-protocol: Binding affinity to Salmon sperm DNA in phosphate buffer assessed as change in melting temperature
# Type: nucleic-acid assay
# conditions-used: Oncorhynchus
parameter: ΔTm
Include the unit right after the number.

Ask: Entry N=C(N)Nc1ccc(Cc2ccc(N=C3NCCN3)cc2)cc1 : reported ΔTm = ?
Result: 6 °C

Ask: Returns the measured ΔTm for the input compound. Input: Nc1ccc(NC(=O)Nc2ccc(N=C3NCCN3)cc2)cc1
Result: 4 °C

----------
Listing: ΔTm of selected compounds
# Test system: Nucleic Acid
# measurement-protocol: Binding affinity to Poly(dA).Poly(dT) DNA in MES buffer assessed as change in melting temperature
# Type: nucleic-acid assay
Enter your answer as a number in °C; do not include the unit.

Worked examples follow.
N=C(N)Nc1ccc(Sc2ccc(N=C3NCCN3)cc2)cc1 ... 23
N=C(N)Nc1ccc(C(=O)c2ccc(N=C3NCCN3)cc2)cc1 ... 32
N=C(N)Nc1ccc(N2CCN(c3ccc(N=C4NCCN4)cc3)CC2)cc1 ... 31.1

Ask: I'm curious: which ΔTm was measured for N=C(N)Nc1ccc(Nc2ccc(N=C3NCCN3)cc2)cc1 tested on Nucleic Acid?
Result: 35.1

Ask: Query for Nucleic Acid: what ΔTm does the record show for N=C(N)Nc1ccc(Oc2ccc(N=C3NCCN3)cc2)cc1 ?
Result: 25.3

----------
# Tested on: Nucleic Acid
# measurement-protocol: Binding affinity to Salmon sperm DNA in phosphate buffer assessed as change in melting temperature
# Format: nucleic-acid assay
# conditions-used: Oncorhynchus
Just a reminder that ties go to class 0: only ΔTm strictly below 4 °C counts as class 1.

Field: example entries. Status: answers known.
N=C(N)Nc1ccc(Nc2ccc(N)cc2)cc1 ... class 1
N=C(N)Nc1ccc(Oc2ccc(N=C3NCCN3)cc2)cc1 ... class 0

Ask: Does the reported ΔTm of the following molecule sit strictly below 4 °C? N=C(N)Nc1ccc(CCc2ccc(N)cc2)cc1
Result: class 1

Ask: is_below(ΔTm, 4 °C) for Nc1ccc(Oc2ccc(N=C3NCCN3)cc2)cc1 ?
Result: class 1

Ask: Regarding N=C(N)Nc1ccc(NC(=O)Nc2ccc(N)cc2)cc1 , kindly confirm whether its ΔTm is beneath 4 °C.
Result: class 1

Ask: I'd appreciate it if you could check whether N=C(N)Nc1ccc(Sc2ccc(N=C3NCCN3)cc2)cc1 has ΔTm smaller than 4 °C.
Result: class 0

Ask: Just wondering, is ΔTm of N=C(N)Oc1ccc(Oc2ccc(OC(=N)N)cc2)cc1 below 4 °C?
Result: class 0

Ask: I wonder whether N=C(N)Nc1ccc(CCc2ccc(N=C3NCCN3)cc2)cc1 has ΔTm below 4 °C. Can you tell?
Result: class 0

Ask: Lab note: confirm whether the reported ΔTm for this molecule is below 4 °C, equality not counting. molecule: Nc1ccc(N2CCN(c3ccc(N=C4NCCN4)cc3)CC2)cc1
Result: class 1

Ask: Answer whether the molecule N=C(N)Oc1ccc(Sc2ccc(O)cc2)cc1 has ΔTm strictly less than 4 °C
Result: class 1

Ask: Decide: ΔTm of N=C(N)Nc1ccc(Nc2ccc(N=C3NCCN3)cc2)cc1 strictly below 4 °C?
Result: class 0

----------
# Test system: Nucleic Acid
# measurement-protocol: Binding affinity to Salmon sperm DNA in phosphate buffer assessed as change in melting temperature
# Format: nucleic-acid assay
# conditions-used: Oncorhynchus
parameter: ΔTm
State the value, then name its unit.

Worked cases, ΔTm given:
N=C(N)Nc1ccc(Oc2ccc(N)cc2)cc1 ... 2 °C
N=C(N)Nc1ccc(N2CCN(c3ccc(N=C4NCCN4)cc3)CC2)cc1 ... 9 °C
N=C(N)Oc1ccc(Cc2ccc(O)cc2)cc1 ... 2 °C
Nc1ccc(Sc2ccc(N=C3NCCN3)cc2)cc1 ... 0 °C
Nc1ccc(Nc2ccc(N=C3NCCN3)cc2)cc1 ... 2 °C
N=C(N)Nc1ccc(C(=O)c2ccc(N)cc2)cc1 ... 0 °C
N=C(N)Oc1ccc(Sc2ccc(OC(=N)N)cc2)cc1 ... 5 °C
N=C(N)Oc1ccc(Oc2ccc(O)cc2)cc1 ... 4 °C

Ask: Look at this molecule and give its reported ΔTm. N=C(N)Nc1ccc(N2CCN(c3ccc(N)cc3)CC2)cc1
Result: 2 °C

Ask: What measured ΔTm goes with Nc1ccc(Cc2ccc(N=C3NCCN3)cc2)cc1 ?
Result: 3 °C

Ask: I'd like to know its ΔTm. The molecule in question is N=C(N)Nc1ccc(Cc2ccc(N)cc2)cc1
Result: 3 °C

----------
# Tested on: Nucleic Acid
# measurement-protocol: Binding affinity to Poly(dA.dT)2 DNA in phosphate buffer assessed as change in melting temperature
# Assay type: nucleic-acid assay
Entries annotated with measured ΔTm
Numbers only; they are read as °C.

Ask: Using the record for N=C(N)Nc1ccc(Cc2ccc(N=C3NCCN3)cc2)cc1 , report its ΔTm.
Result: 6

Ask: For the compound shown here, Cn1cc(NC(=O)c2cc(NC(=O)CNC(=N)N)cn2C)cc1C(=O)NCCC(=N)N , give the reported ΔTm.
Result: 39

Ask: Fill blank: measured ΔTm of the compound N=C(N)Nc1ccc(NC(=O)Nc2ccc(N=C3NCCN3)cc2)cc1 is ____.
Result: 14

----------
Reported ΔTm values are given for each entry in this list.
# System: Nucleic Acid
# measurement-protocol: Binding affinity to Salmon sperm DNA in phosphate buffer assessed as change in melting temperature
# Format: nucleic-acid assay
# conditions-used: Oncorhynchus
Could you give me the number in °C? Just the number is fine.

Answered examples (3):
N=C(N)Nc1ccc(NC(=O)Nc2ccc(N=C3NCCN3)cc2)cc1 ... 11.5
Nc1ccc(CCc2ccc(N=C3NCCN3)cc2)cc1 ... 0
N=C(N)Nc1ccc(C(=O)c2ccc(N=C3NCCN3)cc2)cc1 ... 8

Attention now shifts to the item below.
Ask: I would be grateful if you could share the reported ΔTm for N=C(N)Nc1ccc(Sc2ccc(N)cc2)cc1 .
Result: 2

----------
# Test system: Nucleic Acid
# measurement-protocol: Binding affinity to Poly(dA).Poly(dT) DNA in MES buffer assessed as change in melting temperature
# Type: nucleic-acid assay
parameter: ΔTm
Form entry: enter the amount, then its unit.

N=C(N)Nc1ccc(Cc2ccc(N=C3NCCN3)cc2)cc1 ... 17.2 °C
N=C(N)Nc1ccc(CCc2ccc(N=C3NCCN3)cc2)cc1 ... 29 °C

# context switch: different compound, same ΔTm
Ask: Request - read-out ΔTm | tested on Nucleic Acid | compound N=C(N)Nc1ccc(NC(=O)Nc2ccc(N=C3NCCN3)cc2)cc1
Result: 30 °C

----------
# Tested on: Nucleic Acid
# measurement-protocol: Binding affinity to Poly(dA.dT)2 DNA in phosphate buffer assessed as change in melting temperature
# Type: nucleic-acid assay
parameter: ΔTm
I'd appreciate it if you included the unit after the number.

N=C(N)Nc1ccc(CCc2ccc(N=C3NCCN3)cc2)cc1 ... 16 °C
N=C(N)Nc1ccc(N2CCN(c3ccc(N=C4NCCN4)cc3)CC2)cc1 ... 15 °C
N=C(N)Nc1ccc(Sc2ccc(N=C3NCCN3)cc2)cc1 ... 9 °C

Ask: Need ΔTm of N=C(N)Nc1ccc(Nc2ccc(N=C3NCCN3)cc2)cc1 , thanks.
Result: 17.5 °C

Ask: Value lookup for ΔTm; key = N=C(N)Nc1ccc(C(=O)c2ccc(N=C3NCCN3)cc2)cc1
Result: 15 °C

Ask: Find the recorded ΔTm belonging to N=C(N)Nc1ccc(Oc2ccc(N=C3NCCN3)cc2)cc1 and report it.
Result: 10 °C
